These data points were gathered from ChEMBL document CHEMBL1148839.

# Test system: MDA-MB-231
# assay.method.text: Cytotoxicity against human MDA-MB-231 cells after 4 days by MTT assay
# Format: functional, cell-based
# condition.set: MDA-MB-231, 96 h
pIC50: −log10 of the molar value.
quantity.kind: pIC50

INSERT INTO assay_data (compound, quantity_kind, comparison_symbol, test_value) VALUES
  ('O=c1c2ccccc2oc2cc(OCC(O)CBr)cc(O)c12 (stereo not drawn)', 'pIC50', '=', 4.12),
  ('O=c1c2ccccc2oc2cc(OCC(O)CCl)cc(O)c12 (stereo not drawn)', 'pIC50', '<', 4.00),
  ('COc1cccc2c(=O)c3c(O)cc(OCC(O)CBr)cc3oc12 (stereo not drawn)', 'pIC50', '=', 4.00),
  ('COc1cccc2c(=O)c3c(O)cc(OCC4CO4)cc3oc12 (stereo not drawn)', 'pIC50', '<', 4.00),
  ('O=c1c2ccccc2oc2cc(OCC3CO3)cc(O)c12 (stereo not drawn)', 'pIC50', '<', 4.00),
  ('COc1cccc2c(=O)c3c(O)cc(OCC(O)CCl)cc3oc12 (stereo not drawn)', 'pIC50', '=', 4.09),
  ('COc1cccc2c1C(=O)c1c(O)c3c(c(O)c1C2=O)C[C@@](O)(C(=O)CO)C[C@@H]3O[C@H]1C[C@H](N)[C@H](O)[C@H](C)O1', 'pIC50', '=', 4.75),
  ('O=c1c2ccccc2oc2cc(OCC3CO3)cc(OCC3CO3)c12 (stereo not drawn)', 'pIC50', '=', 4.89);
